Tested on: Human immunodeficiency virus type 1 reverse transcriptase (Human immunodeficiency virus 1), Q72547 [L100I]
EXPERIMENTAL PROTOCOL: Inhibition of HIV1 reverse transcriptase L100I mutant
MEASURED PARAMETER: log(1/C)
I'd appreciate a reply containing only the number, no unit.

Below are worked cases with known answers.
> print(dat)
                           structure.smiles  measured.parameter  reported.measurement
1  Cc1cc(C#N)cc(C)c1Nc1nc(Nc2ccc(C#N)cc2)nc(NO)c1Br            log(1/C)                  8.92
2  Cc1cc(Br)cc(C)c1Nc1ccnc(Nc2ccc(C#N)cc2)n1            log(1/C)                  7.12
3  Cc1cnc(Nc2ccc(C#N)cc2)nc1Nc1c(C)cc(C#N)cc1C            log(1/C)                   7.8
4  Cc1cc(C)c(Nc2nc(Nc3ccc(C#N)cc3)ncc2Cl)c(C)c1            log(1/C)                  7.77
5  Cc1cc(C)c(Nc2nc(Nc3ccc(C#N)cc3)ncc2C)c(C)c1            log(1/C)                  7.92
6  Cc1cc(C#N)cc(C)c1Sc1ccnc(Nc2ccc(C#N)cc2)n1            log(1/C)                  6.76
7  Cc1cc(C#N)cc(C)c1Nc1ccnc(Nc2ccc(C#N)cc2)n1            log(1/C)                  7.47

Turning to the following compound.
[in] Suppose we examine the compound Cc1cccc(C)c1Nc1ccnc(Nc2ccc(C#N)cc2)n1 ; what log(1/C) value has been reported?
[out] 6.67
